test system: SEM cells; test: cell viability relative to DMSO control; higher = less cytotoxic; conditions: RPMI 5 mM glucose + 10% FBS; 48 h; 0.0632 µM
QUANTITY KIND: cell viability (%)

{"SMILES ENTRY": "COc1cc2c(Nc3ccc(Br)cc3F)ncnc2cc1OCC1CCN(C)CC1", "QUANTITY KIND": "cell viability", "READOUT NUMBER": 118}
{"SMILES ENTRY": "Cc1cc(Nc2cc(CN3CCOCC3)c3nc(C)c(Cc4ccc(Cl)cc4F)n3n2)[nH]n1", "QUANTITY KIND": "cell viability", "READOUT NUMBER": 108}
{"SMILES ENTRY": "COC1=CC=CC(=C1N)\\C2=C\\C(=O)C3=C(O2)C=CC=C3", "QUANTITY KIND": "cell viability", "READOUT NUMBER": 136}
{"SMILES ENTRY": "COc1cccc([C@@H](C)NCCCc2ccccc2Cl)c1", "QUANTITY KIND": "cell viability", "READOUT NUMBER": 94}

The origin of these recorded values is the supplement of paper PMC11451515.
